Molecular target: CDK2 (Homo sapiens, UniProt P24941)
Construct: endogenous in cells; host or cells: MKN1 cells
Assay: CDK2 degradation in MKN1 cells (AlphaLISA)
Format: cell-based
Settings: 14 h incubation
Description: Degradation of CDK2 in MKN1 cells was measured using AlphaLISA technology (PerkinElmer ALSU-TCDK2-A10K). MKN1 cells were maintained in RPMI1640 medium containing 10% FBS+1× penn/strep. […] Under subdued light, the plates were analyzed on an EnVision Microplate Reader (PerkinElmer Model 2009-0030). […] The data were analyzed using Xlfit (v5.3. 1.3) and the dose-dependent CDK2 degradation data were fit using a four-parameter logistic model to calculate DC50.
recorded.endpoint: CDK2 degradation 14 h: Average Dmax %

Solved cases (10 shown):
* Cc1cc(S(=O)(=O)N2CCC(CN(C)C3CCN(c4cccc5c4n(C)c(=O)n5C4CCC(=O)NC4=O)CC3)CC2)ccc1Nc1ncc2ccc(=O)n(C3CCCC3)c2n1 (centres unmarked) | A (A (>75% o))
* Cc1cc(S(=O)(=O)C2CC3(CCN(CC4CCN(c5ccc(NC6CCC(=O)NC6=O)c(C)c5)CC4)CC3)C2)ccc1Nc1ncc2cc(Cl)c(=O)n(C3CCCC3)c2n1 (centres unmarked) | B (B (>50% -75%))
* Cc1cc(S(=O)(=O)NC2CCC(CN3CCN(c4ccc(C5CCC(=O)NC5=O)c(Cl)c4)CC3)CC2)ncc1Nc1ncc(C(F)(F)F)c(N2CCCC(C)(O)C2)n1 (centres unmarked) | A (A (>75% o))
* Cc1cc(S(=O)(=O)N2CCC3(CCN(Cc4cccc5c4n(C)c(=O)n5C4CCC(=O)NC4=O)CC3)CC2)ccc1Nc1ncc2ccc(=O)n(C3CCCC3)c2n1 (centres unmarked) | B (B (>50% -75%))
* Cc1cc(S(=O)(=O)NCCO[C@H]2CC[C@H](CN3CCN(c4ccc5c(c4)n(C)c(=O)n5C4CCC(=O)NC4=O)CC3)CC2)ccc1Nc1ncc2cc(Cl)c(=O)n(C3CCCC3)c2n1 (some centres unmarked) | A (A (>75% o))
* Cc1cc(S(=O)(=O)N2CCC(CN(C)C3CCN(c4cccc5c4n(C)c(=O)n5C4CCC(=O)NC4=O)CC3)CC2)ccc1Nc1nc(OC2CCCCC2)c2nc[nH]c2n1 (centres unmarked) | A (A (>75% o))
* Cc1cc(S(=O)(=O)C2CCC(N3CC4(CCN(c5cccc6c5n(C)c(=O)n6C5CCC(=O)NC5=O)CC4)C3)CC2)ccc1Nc1ncc2c(n1)N(C1CCCC1)C(=O)C21CC1 (centres unmarked) | B (B (>50% -75%))
* Cc1cc(S(=O)(=O)NC2CCC(F)(CN3CCN(c4ccc(C5CCC(=O)NC5=O)cc4F)CC3)CC2)ccc1Nc1ncc(C(F)(F)F)c(N2CCC[C@](C)(O)C2)n1 (some centres unmarked) | A (A (>75% o))
* Cc1cc(S(=O)(=O)NC(C)COC2CN(CC3CCN(c4ccc5c(c4F)n(C)c(=O)n5C4CCC(=O)NC4=O)CC3)C2)ccc1Nc1ncc(C(F)(F)F)c(C2CCC(C)(O)CC2)n1 (racemic) | B (B (>50% -75%))
* Cc1cc(S(=O)(=O)C2CC3(CCN(CC4CCN(c5ccc(NC6CCC(=O)NC6=O)cc5C)CC4)CC3)C2)ccc1Nc1ncc2cc(Cl)c(=O)n(C3CCCC3)c2n1 (centres unmarked) | B (B (>50% -75%))

Continue with the compound presented below.
Quick note, CDK2 degradation 14 h: Average Dmax % for CC1CN(CC2CCN(c3ccc(C4CCC(=O)NC4=O)c(F)c3)CC2)CCC1NS(=O)(=O)c1ccc(Nc2ncc(C(F)(F)F)c(N3CCCC(C)(O)C3)n2)c(F)c1 (centres unmarked) [I-1062] landed at A (A (>75% o))

Ref: patent US20240173419A1
